The compounds listed here are annotated with their Activity.
# Assay Target: UniProtKB P14618
# Sequence (P14618 2-531 limits assumed): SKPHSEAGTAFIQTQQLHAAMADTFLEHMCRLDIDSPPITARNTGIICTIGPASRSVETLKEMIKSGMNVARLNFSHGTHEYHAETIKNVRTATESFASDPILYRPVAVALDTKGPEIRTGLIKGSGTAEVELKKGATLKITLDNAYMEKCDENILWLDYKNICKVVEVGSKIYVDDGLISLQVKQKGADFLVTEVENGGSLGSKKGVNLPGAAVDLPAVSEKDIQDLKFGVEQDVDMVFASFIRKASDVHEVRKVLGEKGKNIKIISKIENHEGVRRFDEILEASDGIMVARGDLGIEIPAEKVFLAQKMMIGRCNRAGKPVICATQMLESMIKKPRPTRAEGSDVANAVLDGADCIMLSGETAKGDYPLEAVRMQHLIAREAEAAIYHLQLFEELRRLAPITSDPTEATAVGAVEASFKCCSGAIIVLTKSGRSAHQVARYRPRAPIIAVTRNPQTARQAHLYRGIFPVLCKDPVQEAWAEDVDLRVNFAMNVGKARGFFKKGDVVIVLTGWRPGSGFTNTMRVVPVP
# Test Summary: Activation of human pyruvate kinase M2 using phosphoenolpyruvate as substrate assessed as concentration required for 50% activation by kinaseGlo assay
Note: unit µM is implicit; provide only the numeric part.

Example results:
Compound Smiles | Measure Unit | Activity
O=S(=O)(c1ccc2c(c1)CCN2S(=O)(=O)c1ccccc1)c1ccc2c(c1)OCCO2 | µM | 0.093
CS(=O)(=O)N1CCc2c1cc(F)c(S(=O)(=O)c1ccc3c(c1)OCCO3)c2F | µM | 0.079
CS(=O)(=O)N1CCCc2cc(C(=O)CSc3ccc4c(c3)OCCO4)ccc21 | µM | 1.3

Could you now look at the following compound, please?
// query Specify Activity for `CS(=O)(=O)N1CCCc2cc(S(=O)(=O)c3ccc4c(c3)OCCO4)ccc21` and stop.
// result 2.3

* * *

The compounds listed here are annotated with their half-life at 1 µM.
# Test Summary: Half life in human liver microsomes at 1 uM by LC-MS/MS analysis
# Conditions Used: liver microsomes
Note: unit min is implicit; provide only the numeric part.

Compound | Endpoint Result
CCS(=O)(=O)N1CCc2cc(C(=O)CSc3ccc4c(c3)OCCCO4)ccc21 | 1.4
CC1Cc2cc(S(=O)(=O)c3ccc4c(c3)OCCO4)ccc2N1S(C)(=O)=O (racemic) | 31.5

// query Specify half-life at 1 µM for CC1Cc2cc(C(=O)CSc3ccc4c(c3)OCCO4)ccc2N1S(C)(=O)=O (racemic) and stop.
// result 3.4

* * *

# Test Summary: Half life in human liver microsomes at 1 uM by LC-MS/MS analysis
# Conditions Used: microsomes
The compounds listed here are annotated with their half-life at 1 µM.
Note: unit min is implicit; provide only the numeric part.

Compound Smiles | Endpoint Result
CS(=O)(=O)N1CCc2cc(S(=O)(=O)c3ccc4c(c3)OCCO4)ccc21 | 26

Could you now look at the following compound, please?
// query Specify half-life at 1 µM for `CS(=O)(=O)Nc1ccc(C(=O)CSc2ccc3c(c2)OCCO3)cc1` and stop.
// result 3.3

* * *

# Test Summary: Serum protein binding in human at 1 uM after 5 hrs by LC-MS/MS analysis
# Assay type: ADME, cell-free
# Conditions Used: read-out: PB (converted)
The compounds listed here are annotated with their fraction unbound at 5 h, 1 µM.
The reply should be a number, written without any unit.

Compound | fraction unbound at 5 h, 1 µM
CS(=O)(=O)N1Cc2ccc(S(=O)(=O)c3ccc4c(c3)OCCO4)cc2C1 | 0.091

// query Specify fraction unbound at 5 h, 1 µM for CC1Cc2cc(S(=O)(=O)c3ccc4c(c3)OCCO4)ccc2N1S(C)(=O)=O (racemic) and stop.
// result 0.075

// query Specify fraction unbound at 5 h, 1 µM for `CS(=O)(=O)N1CCc2cc(S(=O)(=O)c3ccc4c(c3)OCCO4)ccc21` and stop.
// result 0.059

* * *

# Assay Target: Pyruvate kinase PKM (Homo sapiens)
# Test Summary: Activation of human pyruvate kinase M2 using phosphoenolpyruvate as substrate by kinaseGlo assay relative to control
The molecules listed here are annotated with their max activation.
Note: unit % is implicit; provide only the numeric part.

Molecule | max activation / %
CC1Cc2cc(S(=O)(=O)c3ccc4c(c3)OCCO4)ccc2N1S(=O)(=O)c1c(F)cccc1F (racemic) | 168
CC1Cc2cc(S(=O)(=O)c3ccc4c(c3)OCCO4)ccc2N1S(=O)(=O)Cc1ccccc1 (racemic) | 111
CS(=O)(=O)Nc1ccc(C(=O)CSc2ccc3c(c2)OCCO3)cc1 | 140
CC1Cc2cc(S(=O)(=O)c3ccc4c(c3)OCCO4)ccc2N1S(C)(=O)=O (racemic) | 148
CC1Cc2cc(NS(=O)(=O)c3ccc4c(c3)OCCO4)ccc2N1S(C)(=O)=O (racemic) | 32.5
CC(C)N(c1ccc(S(=O)(=O)c2ccc3c(c2)OCCO3)cc1)S(C)(=O)=O | 194
CC1Cc2cc(S(=O)(=O)c3ccc4c(c3)OCCO4)ccc2N1S(=O)(=O)c1ccc(F)cc1 (racemic) | 159
COc1cccc(S(=O)(=O)N2c3ccc(S(=O)(=O)c4ccc5c(c4)OCCO5)cc3CC2C)c1 (racemic) | 119

// query Specify max activation for `O=S(=O)(c1ccc2c(c1)CCN2S(=O)(=O)c1cccc(F)c1)c1ccc2c(c1)OCCO2` and stop.
// result 87

// query Specify max activation for `O=S(=O)(c1ccc2c(c1)CCN2S(=O)(=O)C1CC1)c1ccc2c(c1)OCCO2` and stop.
// result 105

// query Specify max activation for `O=P(O)(O)OC[C@H]1O[C@@](O)(COP(=O)(O)O)[C@@H](O)[C@@H]1O` and stop.
// result 148

// query Specify max activation for `CCN(c1ccc(S(=O)(=O)c2ccc3c(c2)OCCO3)cc1)S(C)(=O)=O` and stop.
// result 100

// query Specify max activation for `CCN(c1ccc(S(=O)(=O)c2ccc3c(c2)OCCO3)c(C)c1)S(C)(=O)=O` and stop.
// result 160

// query Specify max activation for `O=S(=O)(c1ccc2c(c1)CCN2S(=O)(=O)c1ccccc1)c1ccc2c(c1)OCCO2` and stop.
// result 122

// query Specify max activation for `CCS(=O)(=O)N1CCc2cc(C(=O)CSc3cccc(OC)c3)ccc21` and stop.
// result 110

// query Specify max activation for `CS(=O)(=O)N1CCCc2cc(S(=O)(=O)c3ccc4c(c3)OCCO4)ccc21` and stop.
// result 152

// query Specify max activation for CC1Cc2cc(C(=O)CSc3ccc4c(c3)OCCO4)ccc2N1S(C)(=O)=O (racemic) and stop.
// result 164

// query Specify max activation for `CS(=O)(=O)N1CCc2cc(S(=O)(=O)c3ccc4c(c3)OCCO4)ccc21` and stop.
// result 106

// query Specify max activation for `CS(=O)(=O)n1ccc2cc(S(=O)(=O)c3ccc4c(c3)OCCO4)ccc21` and stop.
// result 98

* * *

# Assay Target: Pyruvate kinase PKM (Homo sapiens)
# Test Summary: Activation of human pyruvate kinase M2 using phosphoenolpyruvate as substrate assessed as concentration required for 50% activation by kinaseGlo assay
Measured Metric: log10(Activity) (log10 of the value in µM)
Hey, these are logged values: log10 of Activity, µM being the unit before logging.

Example results:
Molecule | log10(Activity)
CC1Cc2cc(S(=O)(=O)c3ccc4c(c3)OCCO4)ccc2N1S(=O)(=O)c1c(F)cccc1F (racemic) | -0.30
O=S(=O)(c1ccc2c(c1)CCN2S(=O)(=O)c1cccc(F)c1)c1ccc2c(c1)OCCO2 | -1.52
CCN(c1ccc(S(=O)(=O)c2ccc3c(c2)OCCO3)cc1)S(C)(=O)=O | 1.61
CC(C)N(c1ccc(S(=O)(=O)c2ccc3c(c2)OCCO3)cc1)S(C)(=O)=O | 0.45
CS(=O)(=O)Nc1ccc(C(=O)CSc2ccc3c(c2)OCCO3)cc1 | 0.40
CCS(=O)(=O)N1CCc2cc(C(=O)CSc3ccc4c(c3)OCCCO4)ccc21 | -0.29
CCN(c1ccc(S(=O)(=O)c2ccc3c(c2)OCCO3)c(C)c1)S(C)(=O)=O | 0.43

Could you now look at the following molecule, please?
// query Specify log10(Activity) for `CS(=O)(=O)n1ccc2cc(S(=O)(=O)c3ccc4c(c3)OCCO4)ccc21` and stop.
// result -1.64

* * *

# Assay Target: UniProtKB P14618
# Test Summary: Activation of human pyruvate kinase M2 using phosphoenolpyruvate as substrate assessed as concentration required for 50% activation by kinaseGlo assay
Could you label it true (1) if measured Activity is 2 µM or higher, and false (0) otherwise?

Here's what some known entries look like.
Compound | Category
CC1Cc2cc(C(=O)CSc3ccc4c(c3)OCCO4)ccc2N1S(C)(=O)=O (racemic) | false (0)
CC1Cc2cc(S(=O)(=O)Nc3ccc4c(c3)OCCO4)ccc2N1S(C)(=O)=O (racemic) | true (1)
O=S(=O)(c1ccc2c(c1)CN(S(=O)(=O)c1ccccc1)C2)c1ccc2c(c1)OCCO2 | false (0)

// query Check if Activity >= 2 µM (inclusive). Item: `CCS(=O)(=O)N1CCc2cc(S(=O)(=O)c3ccc4c(c3)OCCO4)ccc21`
// result false (0)

// query Check if Activity >= 2 µM (inclusive). Item: CC1Cc2cc(S(=O)(=O)c3ccc4c(c3)OCCO4)ccc2N1S(=O)(=O)Cc1ccccc1 (racemic)
// result false (0)

// query Check if Activity >= 2 µM (inclusive). Item: `CCS(=O)(=O)N1CCc2cc(C(=O)CSc3ccc(F)cc3F)ccc21`
// result true (1)

// query Check if Activity >= 2 µM (inclusive). Item: COc1cccc(S(=O)(=O)N2c3ccc(S(=O)(=O)c4ccc5c(c4)OCCO5)cc3CC2C)c1 (racemic)
// result false (0)

// query Check if Activity >= 2 µM (inclusive). Item: `Cc1cn(S(C)(=O)=O)c2ccc(S(=O)(=O)c3ccc4c(c3)OCCO4)cc12`
// result true (1)
